Molecular target: S. aureus topoisomerase IV (Staphylococcus aureus, UniProt P0C1S7+P0C1U9)
Sequence (P0C1U9 whole entry): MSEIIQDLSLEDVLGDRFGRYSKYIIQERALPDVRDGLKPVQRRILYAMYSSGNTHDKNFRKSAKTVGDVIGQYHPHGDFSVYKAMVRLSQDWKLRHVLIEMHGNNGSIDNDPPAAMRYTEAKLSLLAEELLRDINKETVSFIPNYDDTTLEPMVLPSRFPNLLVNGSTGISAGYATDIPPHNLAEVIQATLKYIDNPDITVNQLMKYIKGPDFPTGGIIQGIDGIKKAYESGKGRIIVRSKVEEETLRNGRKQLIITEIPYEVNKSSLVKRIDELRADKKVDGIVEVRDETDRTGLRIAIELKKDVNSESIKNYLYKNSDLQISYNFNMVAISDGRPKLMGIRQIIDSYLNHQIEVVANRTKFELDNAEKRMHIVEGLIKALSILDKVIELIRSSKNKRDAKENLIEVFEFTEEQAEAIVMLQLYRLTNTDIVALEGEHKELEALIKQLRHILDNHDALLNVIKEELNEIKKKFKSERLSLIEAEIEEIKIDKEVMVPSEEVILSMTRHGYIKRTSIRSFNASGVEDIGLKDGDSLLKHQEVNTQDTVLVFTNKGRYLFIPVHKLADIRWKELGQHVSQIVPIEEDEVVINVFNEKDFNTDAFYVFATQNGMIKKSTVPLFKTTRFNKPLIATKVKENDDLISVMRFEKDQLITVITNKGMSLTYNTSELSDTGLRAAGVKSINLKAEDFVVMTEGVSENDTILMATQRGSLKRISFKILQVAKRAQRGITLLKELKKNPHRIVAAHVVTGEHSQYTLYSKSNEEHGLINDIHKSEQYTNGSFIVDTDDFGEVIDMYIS
Sequence (P0C1S7 whole entry): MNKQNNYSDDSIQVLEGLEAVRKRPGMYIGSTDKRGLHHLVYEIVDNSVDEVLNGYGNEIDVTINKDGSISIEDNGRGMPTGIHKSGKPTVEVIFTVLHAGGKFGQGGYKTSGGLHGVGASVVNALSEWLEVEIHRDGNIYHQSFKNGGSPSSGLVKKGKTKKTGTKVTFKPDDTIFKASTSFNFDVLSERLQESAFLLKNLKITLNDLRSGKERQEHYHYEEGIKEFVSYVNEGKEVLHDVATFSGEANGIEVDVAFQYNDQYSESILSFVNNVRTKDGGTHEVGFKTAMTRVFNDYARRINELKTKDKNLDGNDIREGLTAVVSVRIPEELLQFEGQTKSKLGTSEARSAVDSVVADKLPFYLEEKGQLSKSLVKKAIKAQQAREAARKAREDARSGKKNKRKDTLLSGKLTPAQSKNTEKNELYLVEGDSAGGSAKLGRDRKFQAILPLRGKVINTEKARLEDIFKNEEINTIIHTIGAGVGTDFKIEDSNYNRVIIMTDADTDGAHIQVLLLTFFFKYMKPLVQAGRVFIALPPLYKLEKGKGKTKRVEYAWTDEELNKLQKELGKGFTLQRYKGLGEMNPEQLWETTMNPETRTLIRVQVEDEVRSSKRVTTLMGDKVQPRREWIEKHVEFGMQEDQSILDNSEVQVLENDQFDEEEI
Assay: Topoisomerase IV decatenation assay
Conditions: decatenation of kinetoplast DNA; read-out: inhibition of S. aureus topoisomerase IV activity IC50
Description: Enzyme activity is measured by a decatenation assay that monitors the ATP-dependent unlinking of DNA minicircles from kinetoplast DNA. Analysis is done by gel electrophoresis through 1% agarose/TBE gel. DNA is visualized with an Alpha Imager 2200 Analysis System and the IC50 determined by nonlinear regression analysis with Graphpad Prism software. S. aureus topoismerase IV enzyme subunits, grlA and grlB, are purified to homogeneity from over-expression plasmids in E. coli.
Where a name gives a salt, the structure may show the parent alone.
A collection of compounds and their measured IC50

>>> df
                                   compound  assay_result
0  CCc1c2s[nH]c(=O)c2c(=O)n2ccc(-c3ccncc3)cc12 [Compound 8, hydrochloride]       < 10 µM

Next compound, IC50 to be filled in.
Memo: CCc1c2s[nH]c(=O)c2c(=O)n2ccc(-c3cc(C)nc(C)c3)cc12 [Compound 9, hydrochloride] , reported IC50: < 10 µM

---

target: E. coli DNA gyrase (Escherichia coli, UniProt P0AES4+P0AES6); assay: DNA gyrase supercoiling assay
Sequence (P0AES4 whole entry, one chain of several): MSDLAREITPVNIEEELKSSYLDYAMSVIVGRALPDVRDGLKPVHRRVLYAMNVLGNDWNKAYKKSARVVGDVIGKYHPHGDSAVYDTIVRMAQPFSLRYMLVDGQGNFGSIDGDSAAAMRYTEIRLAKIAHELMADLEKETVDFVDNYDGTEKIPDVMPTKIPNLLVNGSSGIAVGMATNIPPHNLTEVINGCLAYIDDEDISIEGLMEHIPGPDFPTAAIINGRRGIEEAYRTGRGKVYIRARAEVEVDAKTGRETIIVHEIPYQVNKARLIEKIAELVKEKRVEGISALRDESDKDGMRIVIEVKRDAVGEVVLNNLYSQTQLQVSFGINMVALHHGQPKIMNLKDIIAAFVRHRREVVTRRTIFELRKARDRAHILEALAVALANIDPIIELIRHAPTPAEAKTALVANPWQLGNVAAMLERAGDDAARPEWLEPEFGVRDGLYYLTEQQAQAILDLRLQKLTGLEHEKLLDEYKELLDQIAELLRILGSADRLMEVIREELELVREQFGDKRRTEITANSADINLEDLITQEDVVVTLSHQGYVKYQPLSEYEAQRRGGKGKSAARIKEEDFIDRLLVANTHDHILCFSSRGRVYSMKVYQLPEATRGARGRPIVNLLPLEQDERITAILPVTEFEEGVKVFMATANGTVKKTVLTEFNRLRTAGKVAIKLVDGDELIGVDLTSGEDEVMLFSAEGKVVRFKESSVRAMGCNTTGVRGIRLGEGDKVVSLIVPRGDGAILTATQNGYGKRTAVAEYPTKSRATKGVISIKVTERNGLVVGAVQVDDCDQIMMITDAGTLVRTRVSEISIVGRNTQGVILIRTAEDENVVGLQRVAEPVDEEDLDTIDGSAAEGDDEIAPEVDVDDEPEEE
Where a name gives a salt, the structure may show the parent alone.
A collection of compounds and their measured IC50

>>> print(df.to_string())
                                   compound  assay_result
0  CCc1c2s[nH]c(=O)c2c(=O)n2ccc(-c3ccncc3)cc12 [Compound 8, hydrochloride]     < 1000 nM

Memo: CCc1c2s[nH]c(=O)c2c(=O)n2ccc(-c3cc(C)nc(C)c3)cc12 [Compound 9, hydrochloride] , reported IC50: < 1000 nM

---

A collection of molecules and their measured IC50
target: S. aureus DNA gyrase (Staphylococcus aureus, UniProt P0A0K8+P20831); test: DNA gyrase supercoiling assay; conditions: do not inhibit
Sequence (P20831 whole entry): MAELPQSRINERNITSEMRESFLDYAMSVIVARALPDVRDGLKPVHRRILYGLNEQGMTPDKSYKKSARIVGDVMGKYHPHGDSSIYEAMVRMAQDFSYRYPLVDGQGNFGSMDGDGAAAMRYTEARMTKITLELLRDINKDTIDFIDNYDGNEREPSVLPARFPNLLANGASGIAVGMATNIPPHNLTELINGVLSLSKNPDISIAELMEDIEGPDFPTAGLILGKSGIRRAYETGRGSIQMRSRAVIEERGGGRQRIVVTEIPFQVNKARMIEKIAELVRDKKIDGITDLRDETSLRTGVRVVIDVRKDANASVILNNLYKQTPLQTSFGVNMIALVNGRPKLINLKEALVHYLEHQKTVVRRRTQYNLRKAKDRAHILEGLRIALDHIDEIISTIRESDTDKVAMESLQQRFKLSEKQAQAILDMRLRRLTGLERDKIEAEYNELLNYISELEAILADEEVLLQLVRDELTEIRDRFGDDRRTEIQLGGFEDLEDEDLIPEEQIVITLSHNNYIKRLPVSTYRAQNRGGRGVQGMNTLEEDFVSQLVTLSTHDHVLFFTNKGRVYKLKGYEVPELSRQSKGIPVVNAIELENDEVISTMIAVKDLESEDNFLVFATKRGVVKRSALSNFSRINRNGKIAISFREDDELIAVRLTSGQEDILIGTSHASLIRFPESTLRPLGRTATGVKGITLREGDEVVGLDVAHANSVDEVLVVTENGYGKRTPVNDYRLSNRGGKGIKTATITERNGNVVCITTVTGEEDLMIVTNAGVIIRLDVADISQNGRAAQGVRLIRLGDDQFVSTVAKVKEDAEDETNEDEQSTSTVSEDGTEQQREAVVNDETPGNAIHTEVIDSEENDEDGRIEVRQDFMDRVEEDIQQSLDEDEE
Sequence (P0A0K8 whole entry): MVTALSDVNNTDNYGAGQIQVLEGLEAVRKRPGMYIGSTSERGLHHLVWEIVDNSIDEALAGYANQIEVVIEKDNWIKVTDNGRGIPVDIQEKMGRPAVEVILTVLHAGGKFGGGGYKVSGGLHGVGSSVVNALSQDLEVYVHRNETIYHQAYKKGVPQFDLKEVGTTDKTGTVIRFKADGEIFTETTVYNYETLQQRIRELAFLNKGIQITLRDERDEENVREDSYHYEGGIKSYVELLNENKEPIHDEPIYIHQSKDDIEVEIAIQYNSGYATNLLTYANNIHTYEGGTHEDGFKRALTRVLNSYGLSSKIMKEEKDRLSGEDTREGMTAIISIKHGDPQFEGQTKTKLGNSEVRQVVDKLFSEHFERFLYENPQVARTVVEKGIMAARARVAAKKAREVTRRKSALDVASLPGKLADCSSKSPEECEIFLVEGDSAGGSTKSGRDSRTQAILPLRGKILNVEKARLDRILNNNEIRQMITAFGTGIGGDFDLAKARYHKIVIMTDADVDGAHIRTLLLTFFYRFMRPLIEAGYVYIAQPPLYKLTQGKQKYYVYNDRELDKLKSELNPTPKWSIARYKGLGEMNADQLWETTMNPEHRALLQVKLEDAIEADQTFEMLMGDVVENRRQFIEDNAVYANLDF
Counter-ions that a name gives are not always drawn.

>>> print(df.to_string())
                                   molecule                       experimental_system  assay_result
0  CCc1c2s[nH]c(=O)c2c(=O)n2ccc(-c3ccncc3)cc12 [Compound 8, hydrochloride]  S. aureus DNA gyrase (Staphylococcus aureus, UniProt P0A0K8+P20831)      > 200 µM

Next molecule, IC50 to be filled in.
Memo: CCc1c2s[nH]c(=O)c2c(=O)n2ccc(-c3cc(C)nc(C)c3)cc12 [Compound 9, hydrochloride] , reported IC50: > 200 µM
